Listed here are compounds together with their documented growth.
Test system: K-562 leukemia
Experiment: NCI-60 one-dose screen, 48 h (100 = growth as untreated, 0 = no growth, -100 = all killed)
Conditions: 10 µM unless noted
The panel holds about 83,000 compounds, 20% with a hit somewhere; the sample as a whole holds those more often.

[
  {
    "smiles_data": "CC1=C(C)C(=O)C(Nc2cccc(C(=O)OC(C)(C)C)c2)=C(Cl)C1=O",
    "test_target": "K-562 leukemia",
    "output_unit": "%",
    "growth": 21.6
  },
  {
    "smiles_data": "COc1cc2oc(-c3cccc(NC(=O)c4cccc([N+](=O)[O-])c4)c3)cc(=O)c2c(OC)c1OC",
    "test_target": "K-562 leukemia",
    "output_unit": "%",
    "growth": 60.3
  },
  {
    "smiles_data": "CC[C@]12C=CCN3CC[C@@]4(c5ccc(OC)cc5N(C)[C@H]4[C@@](O)(C(=O)OC)[C@@H]1OC(=O)CCN1CCc4ccccc4C1)[C@@H]32",
    "test_target": "K-562 leukemia",
    "output_unit": "%",
    "growth": 75.4
  },
  {
    "smiles_data": "COc1ccc2[nH]cc(/C=N/Nc3ccnc4cc(Cl)ccc34)c2c1",
    "test_target": "K-562 leukemia",
    "output_unit": "%",
    "growth": -4.83
  },
  {
    "smiles_data": "CS(=O)(=O)c1ccc(/C(=N/N=C(N)N)c2ccc(Cl)cc2)cc1",
    "test_target": "K-562 leukemia",
    "output_unit": "%",
    "growth": 40.7
  },
  {
    "smiles_data": "CC(=O)Nc1cc(N2CCOCC2)c2nc(NC(=O)c3[nH]c(C)c(Cl)c3Cl)sc2c1",
    "test_target": "K-562 leukemia",
    "output_unit": "%",
    "growth": 81.4
  },
  {
    "smiles_data": "Cc1[nH]c(C(=O)Nc2ccc(S(=O)(=O)N3CCCCC3)cc2OCCOCCOCCOCCOCCOCCOCCOCCOCCOc2cc(S(=O)(=O)N3CCCCC3)ccc2NC(=O)c2[nH]c(C)c3c2CCCCC3=O)c2c1C(=O)CCCC2",
    "test_target": "K-562 leukemia",
    "output_unit": "%",
    "growth": 19.2
  },
  {
    "smiles_data": "O=C(/C=C/C=C/c1csc(Br)n1)NO",
    "test_target": "K-562 leukemia",
    "output_unit": "%",
    "growth": 73
  },
  {
    "smiles_data": "C#CCOc1cccc(-c2nc(N)nc(Nc3ccccc3SSc3ccccc3Nc3nc(N)nc(-c4cccc(OCC#C)c4)n3)n2)c1",
    "test_target": "K-562 leukemia",
    "output_unit": "%",
    "growth": 43.5
  },
  {
    "smiles_data": "O=C1Nc2ccccc2/C1=C/c1ccc(OCC(=O)c2ccccc2)cc1",
    "test_target": "K-562 leukemia",
    "output_unit": "%",
    "growth": 88.9
  },
  {
    "smiles_data": "CN1CCN(c2ccc(Nc3nc(NCCCNS(=O)(=O)c4ccc(Cl)cc4)c4sccc4n3)cc2)CC1",
    "test_target": "K-562 leukemia",
    "output_unit": "%",
    "growth": 12.5
  },
  {
    "smiles_data": "O=C(/C=C/c1cccc(F)c1)c1cccc(OCCCCOc2cccc(C(=O)/C=C/c3cccc(F)c3)c2)c1",
    "test_target": "K-562 leukemia",
    "output_unit": "%",
    "growth": 100
  },
  {
    "smiles_data": "COc1ccc(Cn2cc(C#N)c(N)c2C(C)=O)cc1",
    "test_target": "K-562 leukemia",
    "output_unit": "%",
    "growth": 103
  }
]
